Data provenance is patent US11351221B2.

tested on: SKOV-3 ovarian tumor cell; test: SKOV-3 cytotoxicity (MTT assay); format: cell-based; conditions: Homo sapiens, SK-OV-3 cells, 72 hrs, concentration giving 50% cell survival
Endpoint label: CC50 (nM)
Just the number please, in nM, no unit attached.

Answered cases to consult:
CC50 reported for this molecule CN[C@@H](C)C(=O)N[C@H](C(=O)N1C[C@@H](O)C[C@H]1Cc1c(-c2[nH]c3cc(F)ccc3c2C[C@@H]2C[C@H](O)CN2C(=O)[C@@H](NC(=O)[C@H](C)NC)[C@@H](C)O)[nH]c2cc(F)ccc12)[C@@H](C)O [Compound 3] : 13

The molecule identified as CN[C@@H](C)C(=O)N[C@H](C(=O)N1C[C@@H](O)C[C@H]1Cc1c(-c2[nH]c3cc(F)ccc3c2C[C@@H]2C[C@H](O)CN2C(=O)[C@@H](NC(=O)[C@H](C)NC)C(C)C)[nH]c2cc(F)ccc12)C(C)C [Compound 2] registered its CC50 at 0.5

Others:
Noted for CN[C@@H](C)C(=O)N[C@H](C(=O)N1C[C@@H](O)C[C@H]1Cc1c(-c2[nH]c3cc(F)ccc3c2C[C@@H]2C[C@H](O)CN2C(=O)[C@@H](NC(=O)[C@H](C)NC)[C@@H](C)OC)[nH]c2cc(F)ccc12)[C@@H](C)OC [Compound 5] : its CC50 reads 0.13
